molecular target: Recombinant Human Anaplastic Lymphoma Kinase (Homo sapiens); construct: purchased Invitrogen, Carlsbad, Calif; assay: ALK HTRF kinase assay; assay type: biochemical; conditions: compound at 500 nM or 1 mM; 90 μM ATP
Sequence (Q9UM73 19-1620): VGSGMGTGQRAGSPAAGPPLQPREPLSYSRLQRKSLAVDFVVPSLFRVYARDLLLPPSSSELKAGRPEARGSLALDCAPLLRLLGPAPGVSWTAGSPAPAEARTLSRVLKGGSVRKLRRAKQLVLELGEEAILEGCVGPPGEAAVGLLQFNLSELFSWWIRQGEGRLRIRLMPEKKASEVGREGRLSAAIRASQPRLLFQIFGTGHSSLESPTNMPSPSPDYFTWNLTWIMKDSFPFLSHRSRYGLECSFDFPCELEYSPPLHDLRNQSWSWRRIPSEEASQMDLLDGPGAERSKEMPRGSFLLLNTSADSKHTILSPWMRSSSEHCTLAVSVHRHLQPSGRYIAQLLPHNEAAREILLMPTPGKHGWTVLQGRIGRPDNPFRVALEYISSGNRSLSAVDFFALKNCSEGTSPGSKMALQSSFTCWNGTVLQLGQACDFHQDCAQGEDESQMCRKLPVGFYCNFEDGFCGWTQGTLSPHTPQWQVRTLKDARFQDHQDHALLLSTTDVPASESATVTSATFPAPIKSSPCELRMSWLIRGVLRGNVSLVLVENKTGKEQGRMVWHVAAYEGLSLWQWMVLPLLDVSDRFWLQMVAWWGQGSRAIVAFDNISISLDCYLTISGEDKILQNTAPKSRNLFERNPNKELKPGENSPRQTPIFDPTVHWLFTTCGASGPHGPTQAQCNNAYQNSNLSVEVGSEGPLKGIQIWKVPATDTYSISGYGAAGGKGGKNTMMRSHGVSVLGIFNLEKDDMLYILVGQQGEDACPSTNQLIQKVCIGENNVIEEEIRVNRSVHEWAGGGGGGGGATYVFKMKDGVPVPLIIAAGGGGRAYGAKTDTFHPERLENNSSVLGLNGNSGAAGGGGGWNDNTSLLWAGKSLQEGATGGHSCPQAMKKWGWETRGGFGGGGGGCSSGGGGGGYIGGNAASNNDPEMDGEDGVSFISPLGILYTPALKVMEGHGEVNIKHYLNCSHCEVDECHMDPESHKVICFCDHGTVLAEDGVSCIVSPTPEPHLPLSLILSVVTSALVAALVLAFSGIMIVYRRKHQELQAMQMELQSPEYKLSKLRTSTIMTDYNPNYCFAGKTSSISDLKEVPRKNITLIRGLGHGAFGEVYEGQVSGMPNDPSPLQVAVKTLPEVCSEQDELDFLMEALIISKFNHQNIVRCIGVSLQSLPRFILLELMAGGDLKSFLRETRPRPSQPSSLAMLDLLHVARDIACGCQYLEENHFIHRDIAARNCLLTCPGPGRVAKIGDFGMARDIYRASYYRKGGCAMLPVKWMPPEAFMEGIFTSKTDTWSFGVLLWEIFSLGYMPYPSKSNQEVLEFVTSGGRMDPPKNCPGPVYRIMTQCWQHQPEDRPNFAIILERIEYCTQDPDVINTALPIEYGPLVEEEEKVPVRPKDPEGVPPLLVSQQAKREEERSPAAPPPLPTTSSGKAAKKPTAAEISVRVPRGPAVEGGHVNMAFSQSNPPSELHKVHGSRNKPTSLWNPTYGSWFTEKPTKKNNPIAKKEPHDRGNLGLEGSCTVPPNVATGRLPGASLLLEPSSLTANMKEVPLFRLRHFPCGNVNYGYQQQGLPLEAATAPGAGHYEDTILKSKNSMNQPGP
Measured ALK % of inhibition at a concentration of 500 nM or 1 mM by item
Give the value in % but do not write % after it.

Answered cases to consult:
[Q] Quick check: ALK % of inhibition at a concentration of 500 nM or 1 mM of CC(C)NC(=O)N1CCC(CC(=O)Nc2ccc3cc2CCc2cncc(c2)Nc2ncc(Cl)c(n2)N3)CC1 [Example A99, bis(trifluoroacetate)] ?
[A] 25

[Q] Quick check: ALK % of inhibition at a concentration of 500 nM or 1 mM of Cc1ccc(C#N)c(N2CCC(CC(=O)Nc3ccc4cc3CCc3cncc(c3)Nc3ncc(Cl)c(n3)N4)CC2)n1 [Example A238, tris(trifluoroacetate)] ?
[A] 15

Now consider a different compound.
[Q] Quick check: ALK % of inhibition at a concentration of 500 nM or 1 mM of CC(C)(C)C(=O)N1CCC(CC(=O)Nc2ccc3cc2CCc2cncc(c2)Nc2ncc(Cl)c(n2)N3)CC1 [Example A112, bis(trifluoroacetate)] ?
[A] 20
